Provide the recorded Dmax for the entries that follow.
# target_or_system: AR in LNCaP (T878A) cells (Homo sapiens, UniProt P10275, T878A)
# Construct: Assay on degradation activity for AR in LNCaP (T878A) cells; endogenous in cells; host or cells: LNCaP cells
# Sequence (P10275 1-920 T878A): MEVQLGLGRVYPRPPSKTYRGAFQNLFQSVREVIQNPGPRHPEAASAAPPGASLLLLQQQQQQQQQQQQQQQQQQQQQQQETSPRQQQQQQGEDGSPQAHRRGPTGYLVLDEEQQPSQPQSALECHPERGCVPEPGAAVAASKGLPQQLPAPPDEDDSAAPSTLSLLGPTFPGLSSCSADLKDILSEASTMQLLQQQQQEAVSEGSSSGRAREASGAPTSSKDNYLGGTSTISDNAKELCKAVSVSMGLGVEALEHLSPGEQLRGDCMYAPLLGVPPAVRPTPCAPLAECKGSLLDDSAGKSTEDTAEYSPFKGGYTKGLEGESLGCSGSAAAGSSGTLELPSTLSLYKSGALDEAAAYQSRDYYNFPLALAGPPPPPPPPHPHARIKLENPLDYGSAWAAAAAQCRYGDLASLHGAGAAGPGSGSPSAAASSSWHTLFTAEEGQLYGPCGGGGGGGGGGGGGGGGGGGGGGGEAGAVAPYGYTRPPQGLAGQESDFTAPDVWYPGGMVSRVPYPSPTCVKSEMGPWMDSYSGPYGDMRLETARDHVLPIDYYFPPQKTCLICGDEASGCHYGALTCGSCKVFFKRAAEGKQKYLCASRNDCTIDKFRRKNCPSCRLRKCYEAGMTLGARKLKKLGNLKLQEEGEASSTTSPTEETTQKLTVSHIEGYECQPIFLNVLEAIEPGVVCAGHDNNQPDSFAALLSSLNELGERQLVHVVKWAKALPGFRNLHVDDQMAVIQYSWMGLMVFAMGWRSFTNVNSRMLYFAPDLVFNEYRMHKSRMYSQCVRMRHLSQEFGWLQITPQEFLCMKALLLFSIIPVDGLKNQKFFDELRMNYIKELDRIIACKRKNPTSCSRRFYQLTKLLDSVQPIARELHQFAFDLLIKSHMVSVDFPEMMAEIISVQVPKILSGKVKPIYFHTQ
# procedure_text: Assay on degradation activity for AR in LNCaP (T878A) cells (HTRF)
# Type: cell-based
# measurement_setup: maximum degradation rate, 24 h

INSERT INTO results (molecule, quantity_kind, result) VALUES
  ('COc1cc(O[C@H]2C(C)(C)[C@H](NC(=O)c3ccc(N4CCC(CN5CCc6c(ccc7c(C8CCC(=O)NC8=O)noc67)C5)CC4)nn3)C2(C)C)ccc1C#N (stereo partly drawn)', 'Dmax', '> 90%'),
  ('COc1cc(O[C@H]2C(C)(C)[C@H](NC(=O)c3cnc(N4CCC(CN5CCc6c(ccc7c(C8CCC(=O)NC8=O)noc67)C5)CC4)nc3)C2(C)C)ccc1C#N (stereo partly drawn)', 'Dmax', '> 90%');

# input Looking for the measured Dmax of COc1cc(O[C@H]2C(C)(C)[C@H](NC(=O)c3ccc(N4CCC(CN5CCc6c(ccc7c(C8CCC(=O)NC8=O)noc67)C5)CC4)cc3)C2(C)C)ccc1C#N (stereo partly drawn) , can you help?
# output > 90%

Every entry's value here was drawn from patent EP4768489A1.
